What IC50 was measured for each of the following?
# assayedTarget: UniProt:P30969
# Sequence (P30969 whole entry): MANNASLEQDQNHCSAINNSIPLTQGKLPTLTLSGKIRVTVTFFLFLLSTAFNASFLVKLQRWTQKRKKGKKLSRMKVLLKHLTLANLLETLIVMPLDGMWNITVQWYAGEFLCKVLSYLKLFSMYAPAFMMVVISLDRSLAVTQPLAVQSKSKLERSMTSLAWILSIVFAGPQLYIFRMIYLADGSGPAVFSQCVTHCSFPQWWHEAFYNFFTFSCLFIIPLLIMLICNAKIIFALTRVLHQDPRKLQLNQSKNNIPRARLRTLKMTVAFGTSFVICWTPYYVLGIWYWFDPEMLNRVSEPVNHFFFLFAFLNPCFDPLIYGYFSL
# assaySummary: Radioligand binding, 125I-GnRH-A, rat pituitary membranes
# Design: membranes were prepared from rat pituitary; from tissue; host or cells: rat pituitary
# appliedConditions: read-out: rGnRH IC50
Give bare numbers, in µM.

Some entries whose results are on file:
[
  {
    "compound": "Cc1cc2c(cc1Cc1ccc(C(=O)NCc3cccc(CNC(=N)N)c3)o1)C(C)(C)CCC2(C)C [Compound 24]",
    "IC50 / µM": 0.15
  },
  {
    "compound": "Cc1cc2c(cc1Cc1ccc(C(=O)NCc3ccccc3F)o1)C(C)(C)CCC2(C)C [Compound 46]",
    "IC50 / µM": 0.9
  },
  {
    "compound": "Cc1cc2c(cc1Cc1ccc(C(=O)NCC3CCCC(CNC(=N)N)C3)o1)C(C)(C)CCC2(C)C (centres unmarked) [Compound 22]",
    "IC50 / µM": 0.31
  },
  {
    "compound": "Cc1cc(C)c(Cc2ccc(C(=O)NCc3cnc(C)cn3)o2)c(C)c1 [Compound 81]",
    "IC50 / µM": 8.08
  },
  {
    "compound": "Cc1cc2c(cc1Cc1ccc(C(=O)NCC3CCCC(CNc4ncccn4)C3)o1)C(C)(C)CCC2(C)C (centres unmarked) [Compound 138]",
    "IC50 / µM": 1.63
  }
]

# return IC50 for each item in the list
1. COCCCNC(=O)c1ccc(Cc2cc3c(cc2C)C(C)(C)CCC3(C)C)o1 [Compound 122]
2. Cc1cc2c(cc1Cc1ccc(C(=O)NC[C@H]3CC[C@H](C(=O)O)CC3)o1)C(C)(C)CCC2(C)C [Compound 12]
3. Cc1cc2c(cc1Cc1ccc(C(=O)NCc3ccccc3Cl)o1)C(C)(C)CCC2(C)C [Compound 51]
4. Cc1cc2c(cc1Cc1ccc(C(=O)NCc3cccc(F)c3)o1)C(C)(C)CCC2(C)C [Compound 53]
5. Cc1cc2c(cc1Cc1ccc(C(=O)NCC3CCC(CNc4ncc(C#N)c(N)n4)CC3)o1)C(C)(C)CCC2(C)C (centres unmarked) [Compound 94]
6. Cc1cc2c(cc1Cc1ccc(C(=O)NCc3cccnc3)o1)C(C)(C)CCC2(C)C [Compound 43]

1. 1.26
2. 3.08
3. 0.12
4. 0.27
5. 1.49
6. 0.33

----------
# assayedTarget: human GnRH receptor (Homo sapiens, UniProt P30968)
# Construct: expressed in transfected cells; host or cells: HEK 293 (hGnRH-R/293, from Dr. Stuart Sealfon)
# Sequence (P30968 1-328): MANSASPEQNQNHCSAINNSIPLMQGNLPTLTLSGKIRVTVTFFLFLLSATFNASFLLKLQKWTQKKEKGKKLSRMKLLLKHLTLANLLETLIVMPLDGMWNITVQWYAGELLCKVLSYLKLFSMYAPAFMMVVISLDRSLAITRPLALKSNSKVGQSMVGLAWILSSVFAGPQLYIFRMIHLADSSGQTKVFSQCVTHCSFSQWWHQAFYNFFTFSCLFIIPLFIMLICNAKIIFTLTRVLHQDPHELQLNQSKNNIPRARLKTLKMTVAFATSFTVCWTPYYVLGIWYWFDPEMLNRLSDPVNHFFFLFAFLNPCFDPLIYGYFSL
# assaySummary: Radioligand binding, 125I-GnRH-A displacement, membranes of HEK 293 cells with human GnRH receptor
# appliedConditions: 1 uM; read-out: % Inhib. @ 1 uM hGnRH
assayEndpoint: inhibition at 1 µM (%)
One number for each entry, in %.

Recorded inhibition at 1 µM, per entry:
[
  {
    "compound": "Cc1cc2c(cc1Cc1ccc(C(=O)NCc3ccc(Cl)c(C(F)(F)F)c3)o1)C(C)(C)CCC2(C)C",
    "inhibition at 1 µM [%]": 15
  },
  {
    "compound": "COc1ccc(CNC(=O)c2ccc(Cc3cc4c(cc3C)C(C)(C)CCC4(C)C)o2)cc1 [drawing 1098]",
    "inhibition at 1 µM [%]": 89
  },
  {
    "compound": "Cc1cc2c(cc1Cc1ccc(C(=O)NCc3ccc(Cl)cc3Cl)o1)C(C)(C)CCC2(C)C [drawing 1133]",
    "inhibition at 1 µM [%]": 53
  }
]

Continue with the compound presented below.
Returns the measured inhibition at 1 µM for the input compound. Input: Cc1cc2c(cc1Cc1ccc(C(=O)NCCC#N)o1)C(C)(C)CCC2(C)C [drawing 1179]
42

Value source: patent US7101878B1
